The measurements presented in this section are drawn from paper PMC12350473.

Experiment: in vivo
Conditions: male, Sprague-Dawley, rat, in vivo, po, 4.8 g/kg
property name: AUC0-t (ng·h/mL)

[[record]]
smiles_notation = "OCc1ccc(O[C@@H]2O[C@H](CO)[C@@H](O)[C@H](O)[C@H]2O)cc1"
unit_annotation = "ng·h/mL"
test_result = 6620


====

Assay: Plasma pharmacokinetics of GEB constituents after oral GEB extract in normal and MCAO rats (UPLC-MS/MS, non-compartmental)
Settings: plasma, MCAO rats, oral GEB extract 4.8 g/kg, n = 8
Reported Tmax values are given for each entry in this list.
property name: Tmax (h)

[[record]]
compound = "O=C(O)CC(O)(CC(=O)OCc1ccc(O[C@@H]2O[C@H](CO)[C@@H](O)[C@H](O)[C@H]2O)cc1)C(=O)O (stereo partly drawn) [PE, Parishin E]"
test_result = 1.25

[[record]]
compound = "OCc1ccc(O[C@@H]2O[C@H](CO)[C@@H](O)[C@H](O)[C@H]2O)cc1 [GAS, gastrodin]"
test_result = 0.27

[[record]]
compound = "O=C(CC(O)(CC(=O)OCc1ccc(O[C@@H]2O[C@H](CO)[C@@H](O)[C@H](O)[C@H]2O)cc1)C(=O)O)OCc1ccc(O[C@@H]2O[C@H](CO)[C@@H](O)[C@H](O)[C@H]2O)cc1 [PC, Parishin C]"
test_result = 1.13

